# TARGET UNDER TEST: SCRIB_1, Q14160
# Sequence (Q14160 718-814): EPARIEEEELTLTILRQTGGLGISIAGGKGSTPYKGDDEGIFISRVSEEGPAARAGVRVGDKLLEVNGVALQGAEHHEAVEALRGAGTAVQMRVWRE
# TEST DETAILS: holdup assay
# Parameters: key: below the threshold = too weak to quantify, mostly under pKd 3.1 to 4
# SETTINGS: plain residues with an end cap or a label only (N-terminal biotin on a linker: ado-ado)
READOUT TYPE: pKd

| BINDER | pKd |
| --- | --- |
| LVEEEEPMNL [HDAC7, Q8WUI4] | below the threshold |
| SKQFDKNAYV [CLDN10, P78369] | below the threshold |
| PGKKPEDSRV [SLCO2B1, O94956] | below the threshold |
| DLLGGGSDSI [TNRC6B, Q9UPQ9] | below the threshold |
| SSSVNVSSNL [CXCR1, P25024] | below the threshold |

**Q:** # get_value(readout='pKd', item= GQNMTVSVVI [PRLHR, P49683] )
**A:** 3.65

**Q:** Now consider NKSEPFLTWL [WWTR1, Q9GZV5] and answer again.
**A:** 4.63
